target: ERα (Homo sapiens, UniProt P03372); construct: ERα expression was detected in MCF-7 cell lysates treated with 100 nM antiestrogens in serum-free medium for 24 hours; endogenous in cells; host or cells: MCF-7; assay: ERα expression in MCF-7 cell lysates (immunoblot); format: cell-based; conditions: MCF-7 cells, 100 nM compound, serum-free medium, 24 hours, immunoblot band intensity
Sequence (P03372 whole entry): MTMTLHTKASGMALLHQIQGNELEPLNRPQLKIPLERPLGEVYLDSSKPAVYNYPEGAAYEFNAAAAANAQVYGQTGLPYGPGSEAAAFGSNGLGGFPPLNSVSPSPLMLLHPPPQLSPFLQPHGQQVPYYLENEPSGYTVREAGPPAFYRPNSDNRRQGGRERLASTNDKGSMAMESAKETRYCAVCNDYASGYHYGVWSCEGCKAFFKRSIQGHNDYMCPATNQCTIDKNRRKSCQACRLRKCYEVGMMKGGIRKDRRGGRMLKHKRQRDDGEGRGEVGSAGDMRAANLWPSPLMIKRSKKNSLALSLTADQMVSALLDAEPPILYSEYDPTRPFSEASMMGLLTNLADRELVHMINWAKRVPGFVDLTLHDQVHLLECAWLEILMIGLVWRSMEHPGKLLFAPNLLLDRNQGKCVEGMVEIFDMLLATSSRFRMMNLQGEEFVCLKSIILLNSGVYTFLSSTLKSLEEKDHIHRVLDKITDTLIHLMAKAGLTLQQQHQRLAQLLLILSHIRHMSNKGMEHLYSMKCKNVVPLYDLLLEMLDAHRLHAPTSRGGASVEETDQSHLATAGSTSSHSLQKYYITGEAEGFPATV
quantity_name: Relative change ERα levels (% vehicle) (% veh)

Would you please look over these solved cases?
>>> df
                                   compound  value_measured
0  CCCN1CC(Cc2ccc(C3Oc4cc(O)ccc4C(C)=C3c3ccc(O)cc3)cc2F)C1 (single isomer, unassigned) [Compound 113]              38
1  CCCN1CC(Oc2ccc(C3Oc4cc(O)ccc4C(C)=C3c3ccc(O)cc3)cc2)C1 (single isomer, unassigned) [Compound 105]              39
2  CCCN1CC(Cc2ccc(C3Oc4cc(O)ccc4C(C)=C3c3ccc(O)cc3)cc2)C1 (single isomer, unassigned) [Compound 103]              55
3  CCCN1CC(Cc2ccc(C3Oc4cc(O)ccc4C(C)=C3c3ccc(O)cc3)cc2)C1 (single isomer, unassigned) [Compound 102]              50

[a] CCCN1CC(Oc2ccc(C3Oc4cc(O)ccc4C(C)=C3c3ccc(O)cc3)cc2)C1 (single isomer, unassigned) [Compound 106]
[b] CCCN1CC(Oc2ccc(C3Oc4cc(O)ccc4C(C)=C3c3ccccc3C(C)C)cc2)C1 (stereo not drawn) [Compound 119]
Q: Form: Entry with minimum Relative change ERα levels (% vehicle) (choose one): a / b Give the label under which the chosen entry appears.
Ans: b
(b: 36 % veh, a: 53 % veh)
